Value source: patent US12522576B2

assay_method_text: Gravimetric solubility
Format: physicochemical
experimental_setup: organic solvent or mixture, thermodynamic from solid; solvent BuOH/MeOH (1:3); 50° C.; read-out: Gravimetric Solubility at 50° C.
assay_readout: solubility

INPUT: Return value of solubility for input CCCCCc1cc(OC(=O)c2ccc3ccccc3c2)c2c(c1)OC(C)(C)[C@@H]1CCC(C)=C[C@@H]21 [Form B] , no commentary.
OUTPUT: ~24 mg/mL

###

assay_method_text: Visual solubility of Form B
Type: physicochemical
experimental_setup: organic solvent or mixture, thermodynamic from solid; solvent EtOH; RT; read-out: Visual Solubility at RT
assay_readout: solubility

INPUT: Return value of solubility for input CCCCCc1cc(OC(=O)c2ccc3ccccc3c2)c2c(c1)OC(C)(C)[C@@H]1CCC(C)=C[C@@H]21 [Form B] , no commentary.
OUTPUT: < 9000 µg/mL

###

assay_method_text: D9 solubility in the liquors at isolation temperature
Type: physicochemical
experimental_setup: liquors of the equilibrated crystallisation suspension, 25 °C, organic solvent or mixture, thermodynamic from solid, batch 5; IPA/water (95:5); seed G/H; heat T 60; isolation T 25; 10.0 mL/g; SP 12; Exp 29
assay_readout: solubility (µg/mL)
Provide only the numeric value, understood in µg/mL.

INPUT: Return value of solubility for input CCCCCc1cc(OC(=O)c2ccc3ccccc3c2)c2c(c1)OC(C)(C)[C@@H]1CCC(C)=C[C@@H]21 [Form B] , no commentary.
OUTPUT: 4500

###

assay_method_text: Visual solubility of Form B
Format: physicochemical
experimental_setup: organic solvent or mixture, thermodynamic from solid; solvent Heptane; 50° C.; read-out: Visual Solubility at 50° C.
assay_readout: solubility

INPUT: Return value of solubility for input CCCCCc1cc(OC(=O)c2ccc3ccccc3c2)c2c(c1)OC(C)(C)[C@@H]1CCC(C)=C[C@@H]21 [Form B] , no commentary.
OUTPUT: 127 to 254 mg/mL

###

assay_method_text: D9 solubility in the liquors at isolation temperature
Type: physicochemical
experimental_setup: liquors of the equilibrated crystallisation suspension, 25 °C, organic solvent or mixture, thermodynamic from solid, batch 5; EtOAc/EtOH (1:9); seed H; heat T 55; isolation T 25; 10.0 mL/g; SP 21; Exp 28
assay_readout: solubility
Answer with the number, then the unit.

INPUT: Return value of solubility for input CCCCCc1cc(OC(=O)c2ccc3ccccc3c2)c2c(c1)OC(C)(C)[C@@H]1CCC(C)=C[C@@H]21 [Form B] , no commentary.
OUTPUT: 12 mg/mL

###

assay_method_text: D9 solubility in the liquors at isolation temperature
Format: physicochemical
experimental_setup: liquors of the equilibrated crystallisation suspension, 25 °C, organic solvent or mixture, thermodynamic from solid, batch 5; Toluene/EtOH (5:95); seed H; heat T 55; isolation T 25; 12.0 mL/g; SP 21; Exp 33
assay_readout: solubility (mg/mL)
Provide only the numeric value, understood in mg/mL.

INPUT: Return value of solubility for input CCCCCc1cc(OC(=O)c2ccc3ccccc3c2)c2c(c1)OC(C)(C)[C@@H]1CCC(C)=C[C@@H]21 [Form B] , no commentary.
OUTPUT: 10.3

###

assay_method_text: Visual solubility of Form B
Assay type: physicochemical
experimental_setup: organic solvent or mixture, thermodynamic from solid; solvent IPA; RT; read-out: Visual Solubility at RT
assay_readout: solubility

INPUT: Return value of solubility for input CCCCCc1cc(OC(=O)c2ccc3ccccc3c2)c2c(c1)OC(C)(C)[C@@H]1CCC(C)=C[C@@H]21 [Form B] , no commentary.
OUTPUT: < 10000 µg/mL
